- experimentalSystem: T1, cynoPD-1 His (AcroBiosystems PD1-C5223) (cynomolgus monkey, UniProt B0LAJ3 25-170)
- T1 construct: also called cPD-1; cynomolgus PD-1 His-tagged
- T1 sequence (B0LAJ3 entry or part of it limits assumed): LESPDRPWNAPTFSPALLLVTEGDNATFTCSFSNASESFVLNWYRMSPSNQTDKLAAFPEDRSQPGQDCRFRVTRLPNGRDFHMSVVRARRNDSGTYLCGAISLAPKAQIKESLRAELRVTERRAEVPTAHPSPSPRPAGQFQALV
- protocolSummary: SPR; second ka column, taken as cynoPD-1
readoutName: kon (M⁻¹ s⁻¹)
Give the value in M⁻¹ s⁻¹ but do not write M⁻¹ s⁻¹ after it.

XVT458-z2-m6 (antibody, V domains shown, IgG format; also called z2_XVT458m6) VH: QVQLVQSGAEVKKPGASVKVSCKASGYTFTNFYIHWVRQAPGQGLEWMGSIYPNYGITAYNQKFKDRVTMTVDTSTSTAYMELRSLRSDDTAVYYCARGYSYAMDYWGQGTTVTVSS VL: DIQMTQSPSSVSASVGDRVTITCSASQGISGDLNWYQQKPGKAPKLLIYHTSQLHSDVPSRFSGSGSGTDFTLTISSLQPEDFATYYCQGYSKDLLTFGGGTKLEIK ... 213000

Field: next binder
# get_value(readout='kon', item= XVT458-z2-m2 (antibody, V domains shown, IgG format; also called z2_XVT458m2) VH: QVQLVQSGAEVKKPGASVKVSCKASGYTFTNFYIHWVRQAPGQGLEWMGRIYPNYGFTAYNQKFKDRVTMTVDTSTSTAYMELRSLRSDDTAVYYCARGYSYAMDYWGQGTTVTVSS VL: DIQMTQSPSSVSASVGDRVTITCSASQGIYGDLNWYQQKPGKAPKLLIYHTSSLHSGVPSRFSGSGSGTDFTLTISSLQPEDFATYYCQAYSKDLLTFGGGTKLEIK )
127000
